- Test system: biotinyl-Val-oxazolone
- protocol.details: self-aminoacylation, catalytic enhancement (BVO) (fold over background); higher = more active; k-Seq, kA / k0A0; sequences stand for … in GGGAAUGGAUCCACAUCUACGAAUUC…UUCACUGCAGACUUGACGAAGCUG
This sample holds only a part of the variants without activity.
reported.property: self-aminoacylation

INSERT INTO assay_data (sequence_text, value_observed) VALUES
  ('AAGUAUUCUAAUAGUCGCAAG [Fam3.1 aminoacylation ribozyme variant]', 1.6),
  ('CUACUCCAAAGAAUCGGUCUG [Fam1A.1 aminoacylation ribozyme variant]', 0.764),
  ('CCAUACUUCAAGCAAUCGGUA [Fam1B.1 aminoacylation ribozyme variant]', 1.26);

Please look at the following sequence next.
// CUACAUCGAACAAUCGGUCUG [Fam1A.1 aminoacylation ribozyme variant] : self-aminoacylation value = 0.942
